Data provenance: paper PMC7144022

# Test system: BVDV NADL virus
# Test Method Notes: CPE-based antiviral assay, BVDV NADL in MDBK cells (MTS/PMS)
# Test Conditions: Bovine viral diarrhea virus isolates and strains, MDBK, 72 h
Field: log10(EC50). Provide a value for each of the compounds that follow.
Values reflect log10 of reported EC50 (µM).

Cc1cc(C)c2sc(NC(=O)c3cc(-c4ccccc4)nc4ccccc34)nc2c1 | -0.70

Look at each compound and report its log10(EC50).
1. O=C(Nc1nc2ccc(Br)cc2s1)c1cc(-c2ccccc2)nc2ccccc12
2. COc1cccc2sc(NC(=O)c3cc(-c4ccccc4)nc4ccccc34)nc12
3. O=C(Nc1ccn(-c2ccccc2)n1)c1cc(-c2ccccc2F)nc2c(F)cccc12
4. O=C(Nc1nccs1)c1cc(-c2ccccc2)nc2ccccc12
5. O=C(Nc1ccn(-c2ccccc2)n1)c1cc(-c2ccc(F)cc2)nc2ccccc12

Output line:
1. 0.15
2. -0.40
3. -0.52
4. 1.48
5. -1.00
